target_or_system: cruzain (Trypanosoma cruzi);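 note: at 5 µM compound concentration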
assay_notes: biochemical
test_context: 10’ (pre-incubation); sheet Screening results
# Cruzain Inhibition 10’ values compiled below
Write the number in % without appending the unit.

Example cases with answers are listed next.
[
  {
    "compound": "c1csc(-c2cnc3sc(NCC4CCOCC4)nn23)c1",
    "endpoint_unit": "%",
    "Cruzain Inhibition 10’": 16
  },
  {
    "compound": "Cc1cccc(-c2nc(Nc3ccncn3)c3sccc3n2)n1",
    "endpoint_unit": "%",
    "Cruzain Inhibition 10’": -17
  },
  {
    "compound": "Brc1c(-c2ccc3c(c2)OCO3)nc2ncccn12",
    "endpoint_unit": "%",
    "Cruzain Inhibition 10’": -0.9
  }
]

input: // query Cruzain Inhibition 10’ value for entry "Cc1cc(Nc2ccncc2)n2nc(C)c(-c3ccccc3Cl)c2n1"
output: 4.5

input: Can you share its Cruzain Inhibition 10’? I mean this compound: Cc1ccc(NC(=O)CC2COc3ccccc3O2)cc1Cl (stereo not drawn)
output: 4.3

input: Entry under review: "Cc1cccc(NC(=O)c2cc(S(=O)(=O)N(C)c3ccc(F)cc3)ccc2Cl)n1" . Reported Cruzain Inhibition 10’?
output: 6

input: Any idea what Cruzain Inhibition 10’ was measured for "Nc1ncnc2c1ncn2C[C@@H](O)[C@@H](O)C(=O)O" ?
output: 2

input: Any idea what Cruzain Inhibition 10’ was measured for "O=C(NCc1nnc2n1CCCCC2)c1ccc(-c2ccc(F)cc2)o1" ?
output: 7

input: Reported Cruzain Inhibition 10’ for "c1ccc(C[C@@H]2CN(c3nccc(Oc4ccc(-n5ccnc5)cc4)n3)CCN2)cc1" : what is it?
output: 13

###

target_or_system: cruzain (Trypanosoma cruzi, UniProt P25779);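 note: at 5 µM compound concentration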
Sequence (P25779 123-337 limits assumed): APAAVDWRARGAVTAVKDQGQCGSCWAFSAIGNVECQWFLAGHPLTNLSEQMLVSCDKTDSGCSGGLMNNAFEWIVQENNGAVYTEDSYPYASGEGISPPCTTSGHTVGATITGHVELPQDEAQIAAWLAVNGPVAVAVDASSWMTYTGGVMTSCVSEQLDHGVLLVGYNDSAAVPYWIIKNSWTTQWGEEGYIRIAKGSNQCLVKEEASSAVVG
assay_notes: biochemical
test_context: 10’ (pre-incubation); sheet Screening results
readout_type: Cruzain Inhibition 10’ (%)
Please give a number only; it is taken to be in %.

input: What value of Cruzain Inhibition 10’ has been reported for the following compound? CNC(=O)c1cc(S(=O)(=O)N2CCN(c3ccccn3)CC2)cs1 [MMV020136]
output: 2

###

Recorded TbrCatL 10’ Inhibition for the following compounds
target_or_system: TbrCatL (Trypanosoma brucei rhodesiense)
Construct: Conor Caffrey (University of California San Diego)
assay_notes: TbrCatL enzymatic inhibition assay (cleavage of fluorogenic substrate Z-FR-AMC);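 note: at 5 µM compound concentration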
Type: biochemical
test_context: 10’ (pre-incubation time); sheet "Screening results"
Just the number in %, nothing appended.

input: What value of measured TbrCatL 10’ Inhibition is listed for CCc1cc(=O)n(C)c(SC(C)C(=O)Nc2ccc(F)cc2)n1 (stereo not drawn) ?
output: -14

input: What measured TbrCatL 10’ Inhibition goes with "Nc1ncnc2c1c(-c1cnc3ccccc3c1)nn2CC1CCNCC1" ?
output: 3.7

input: // TbrCatL 10’ Inhibition lookup, key: "COc1ccc(Cn2cnc3c(-c4ccco4)nc(Cl)nc32)cc1"
output: 3.4

input: Need TbrCatL 10’ Inhibition of "O=C(NC1CC1)c1ccc(CSCc2ccccc2Cl)o1" , thanks.
output: -0.2

input: For the compound "Nc1ncnc2c1c(Cc1cccc3ccccc13)nn2CC1CCNCC1" , what TbrCatL 10’ Inhibition is on record?
output: 3.4

input: Which TbrCatL 10’ Inhibition is reported for this compound? "NS(=O)(=O)c1cncc(-c2ccc3nccc(-c4cn[nH]c4)c3n2)c1"
output: 34

input: Give its TbrCatL 10’ Inhibition value. Item: "COc1cccc(OC)c1C(=O)Nc1ccc(Cl)c(-c2nc3ccccc3s2)c1"
output: -2

input: Recorded TbrCatL 10’ Inhibition of COc1cc(OC)cc(C(=O)NCC2Cc3cc(Cl)cc(-c4ccncc4)c3O2)c1 (stereo not drawn) , please.
output: -2

input: Look up TbrCatL 10’ Inhibition: "Nc1ncnc2c1ncn2[C@@H]1O[C@H](COS(=O)(=O)NC(=O)c2ccccc2O)[C@@H](O)[C@H]1O"
output: 17

###

target_or_system: TbrCatL (Trypanosoma brucei rhodesiense, UniProt Q95PM0)
Construct: Conor Caffrey (University of California San Diego)
Sequence (Q95PM0 entry or part of it): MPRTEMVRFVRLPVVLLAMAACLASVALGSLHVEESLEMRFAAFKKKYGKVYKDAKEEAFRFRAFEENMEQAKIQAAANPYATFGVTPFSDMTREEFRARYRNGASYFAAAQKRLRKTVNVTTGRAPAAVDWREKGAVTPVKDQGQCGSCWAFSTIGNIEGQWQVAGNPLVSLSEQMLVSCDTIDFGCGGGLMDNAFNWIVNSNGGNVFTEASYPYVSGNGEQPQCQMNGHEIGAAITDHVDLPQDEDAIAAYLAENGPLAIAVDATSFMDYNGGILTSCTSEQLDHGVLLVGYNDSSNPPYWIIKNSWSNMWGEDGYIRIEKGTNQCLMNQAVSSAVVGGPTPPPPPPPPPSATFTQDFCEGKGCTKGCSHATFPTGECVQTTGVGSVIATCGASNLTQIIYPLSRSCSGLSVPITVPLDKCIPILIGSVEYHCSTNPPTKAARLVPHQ
assay_notes: TbrCatL enzymatic inhibition assay (cleavage of fluorogenic substrate Z-FR-AMC);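 note: at 5 µM compound concentration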
Format: biochemical
test_context: 10’ (pre-incubation time); Pathogen Box screening results
readout_type: TbrCatL Inhibition 10’ (%)
Use % as the unit, but write only the number.

[
  {
    "compound": "COc1cccc(NC(=O)c2c(NC(=O)c3cccnc3)sc3c2CCC3)c1 [MMV228911]",
    "readout_type": "TbrCatL Inhibition 10’",
    "endpoint_unit": "%",
    "experimental_value": 4.5
  }
]

input: TbrCatL Inhibition 10’ for Nc1ccc2ncnc(Nc3ccc(OCc4cccc(F)c4)c(Cl)c3)c2c1 [MMV688273] ?
output: -14

input: Which TbrCatL Inhibition 10’ is listed for CC(=O)N1CCN(c2ccc(Oc3ccc(Cl)cc3O)cc2)CC1 [MMV688330] ?
output: -10

input: For CCC(C)NC(=O)c1ccc(NC(=O)C2(c3ccccc3)CCCC2)cc1 (stereo not drawn) [MMV146306] , what is its reported TbrCatL Inhibition 10’?
output: -6.5

input: Recorded TbrCatL Inhibition 10’ for COc1cccc(-n2nnnc2S(C)(=O)=O)c1 [MMV272144] , please?
output: 9

input: What TbrCatL Inhibition 10’ value was documented for this compound, COc1cccc(-c2cc3c(Nc4cccnc4)nccc3[nH]2)c1 [MMV392832] ?
output: -6.4

input: Data request, read-out TbrCatL Inhibition 10’, for c1ccc(-c2nc(NC3CCCCC3)cc(C3CC3)n2)nc1 [MMV021013]
output: 19

input: Data request, read-out TbrCatL Inhibition 10’, for Cc1ccc(-c2cc(C(=O)Nc3cccnc3)c3cc(Br)ccc3n2)cc1 [MMV016838]
output: 0.3

input: # TbrCatL Inhibition 10’ lookup, item Cc1nn(C(=O)Nc2cccc(C(F)(F)F)c2)c(C)c1Sc1ncccn1 [MMV688552]
output: 5

###

target_or_system: TbrCatL (Trypanosoma brucei rhodesiense)
Construct: Conor Caffrey (University of California San Diego)
assay_notes: TbrCatL enzymatic inhibition assay (cleavage of fluorogenic substrate Z-FR-AMC);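 note: at 5 µM compound concentration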
Format: biochemical
test_context: 10’ (pre-incubation time); sheet "Screening results"
readout_type: TbrCatL 10’ Inhibition (%)
Value expressed in %; do not type the unit.

Sample records with TbrCatL 10’ Inhibition:
[
  {
    "compound": "CN(C(=O)c1cc2c(-c3cncnc3)cccc2[nH]1)c1ccccc1",
    "target_or_system": "TbrCatL (Trypanosoma brucei rhodesiense)",
    "TbrCatL 10’ Inhibition [%]": -3.8
  },
  {
    "compound": "C[C@]1(COc2ccc(N3CCC(Oc4ccc(OC(F)(F)F)cc4)CC3)cc2)Cn2cc([N+](=O)[O-])nc2O1",
    "target_or_system": "TbrCatL (Trypanosoma brucei rhodesiense)",
    "TbrCatL 10’ Inhibition [%]": -1.4
  },
  {
    "compound": "CC(C)(CN)c1nc(-c2ccc(Cl)c(O)c2)c(-c2ccnc(N)n2)[nH]1",
    "target_or_system": "TbrCatL (Trypanosoma brucei rhodesiense)",
    "TbrCatL 10’ Inhibition [%]": -9.5
  },
  {
    "compound": "Nc1ncc(-c2cn[nH]c2)cc1-c1nc2cc(Cl)cnc2[nH]1",
    "target_or_system": "TbrCatL (Trypanosoma brucei rhodesiense)",
    "TbrCatL 10’ Inhibition [%]": -1.5
  },
  {
    "compound": "Cc1[nH]c2cc(F)cc(F)c2c(=O)c1-c1ccc(Oc2ccc(OC(F)(F)F)cc2)cc1",
    "target_or_system": "TbrCatL (Trypanosoma brucei rhodesiense)",
    "TbrCatL 10’ Inhibition [%]": 6.6
  },
  {
    "compound": "Cc1cnc(N2CCN[C@@H](Cc3ccccc3)C2)nc1Oc1ccc(-n2ccnc2)cc1",
    "target_or_system": "TbrCatL (Trypanosoma brucei rhodesiense)",
    "TbrCatL 10’ Inhibition [%]": 8.5
  },
  {
    "compound": "O=C(NC1CCN(c2ccnc3ccccc23)C1)c1cccc(C(F)(F)F)c1 (stereo not shown)",
    "target_or_system": "TbrCatL (Trypanosoma brucei rhodesiense)",
    "TbrCatL 10’ Inhibition [%]": 13
  },
  {
    "compound": "Cc1cc(OCC(=O)Nc2ccc(C(C)C)cc2)n(C)c(=O)c1C#N",
    "target_or_system": "TbrCatL (Trypanosoma brucei rhodesiense)",
    "TbrCatL 10’ Inhibition [%]": -4.5
  },
  {
    "compound": "C[C@H](c1ccc2c(c1)CCCC2)N(C)c1ncc2c(N)nc(N)nc2n1",
    "target_or_system": "TbrCatL (Trypanosoma brucei rhodesiense)",
    "TbrCatL 10’ Inhibition [%]": -22
  },
  {
    "compound": "Cc1nc(-c2ccccn2)nc(NCCc2ccc(S(C)(=O)=O)cc2)c1Cl",
    "target_or_system": "TbrCatL (Trypanosoma brucei rhodesiense)",
    "TbrCatL 10’ Inhibition [%]": -12
  }
]

input: I am curious: what TbrCatL 10’ Inhibition value has been reported for "CCCNC(=O)N1CCC2(CC1)CC(=O)c1cc(C)ccc1O2" ?
output: 13

input: Value lookup for TbrCatL 10’ Inhibition; key = "CC(C)(C)OC(=O)N1CCN(c2cc(-c3ccc(Oc4ccccc4)cc3)n[nH]2)CC1"
output: -12

input: Looking for the measured TbrCatL 10’ Inhibition of "FC(F)(F)c1cc(NCCc2ccccc2)nc(-c2ccccn2)n1" , can you help?
output: 9

input: Returns the measured TbrCatL 10’ Inhibition for the input compound. Input: "Cc1cc(NCC(C)C)c2[nH]nc(-c3ccccc3)c2n1"
output: 20

input: Give its TbrCatL 10’ Inhibition value. Item: "CN1CCN(c2nccc3nc(-c4ccc(F)c(F)c4)[nH]c23)CC1"
output: 5
